lowest phenotypically active concentration by entry:
- System: WPMY1-TUBA1B-RELA
- experimental.details: lowest phenotypically active concentration; higher = less potent
- condition.context: treatment time: 24 h
parameter.measured: lowest phenotypically active concentration (µM)

In [3]: df
Out[3]:
                                   compound       study_system  sign_qualifier  reported_result
0     Cc1ccc(NC(=O)CCCCCC(=O)Nc2ccccc2N)cc1  WPMY1-TUBA1B-RELA               =                9
1  O=C(Nc1c[nH]nc1-c1nc2cc(CN3CCOCC3)ccc2[nH]1)NC1CC1  WPMY1-TUBA1B-RELA               ≤              0.3
2  O=C1NC(=O)[C@@H](c2cn3c4c(cccc24)CCC3)[C@@H]1c1c[nH]c2ccccc12 [tivantinib]  WPMY1-TUBA1B-RELA               =                1
3  Cc1cc2c(F)c(Oc3ncnn4cc(OC[C@@H](C)O)c(C)c34)ccc2[nH]1  WPMY1-TUBA1B-RELA               =                9
4  Cc1cc(Nc2cc(N3CCN(C)CC3)nc(Sc3ccc(NC(=O)C4CC4)cc3)n2)[nH]n1  WPMY1-TUBA1B-RELA               ≤              0.3
5  COc1cccc(-c2cc(F)ccc2[C@H]2Cc3nc(N)nc(C)c3C(=O)N2)n1  WPMY1-TUBA1B-RELA               ≤              0.3

====

phenotypically active by entry:
- Tested on: A549-GM130-SQSTM1
- experimental.details: phenotypically active (imaging signature differs from DMSO and reproducible) at any of 0.3-9 uM (binary (1 = active, 0 = inactive)); higher = active
- condition.context: treatment time: 24 h
Where a name gives a salt, the structure may show the parent alone.
parameter.measured: phenotypically active

                                    compound     parameter_measured  reported_result
 0   CNC[C@H](O)c1ccc(O)c(O)c1 [epinephrine]  phenotypically active                0
 1  CCc1cc2c(=O)c(-c3nc4ccccc4s3)coc2c(CN2CCCCC2)c1O  phenotypically active                0
 2    Clc1cccc(Nc2nnc(-c3ccccc3)c3ccccc23)c1  phenotypically active                0
 3         Cc1cc2sc(NC(=O)Cc3ccccc3)nc2cc1Cl  phenotypically active                1
 4  COc1ccc(Cl)cc1C(=O)NCCc1ccc(S(=O)(=O)NC(=O)NC2CCCCC2)cc1 [glyburide]  phenotypically active                0
 5  Cc1ccc(Nc2nccc(N(C)c3ccc4c(C)n(C)nc4c3)n2)cc1S(N)(=O)=O  phenotypically active                1
 6               CN(C)c1nc(N(C)C)nc(N(C)C)n1  phenotypically active                0
 7                 Nc1ccc(N=Nc2ccccc2)c(N)n1  phenotypically active                1
 8  Cc1ccc(C(=O)Oc2ccc(C(O)CNC(C)(C)C)cc2OC(=O)c2ccc(C)cc2)cc1 (stereo unspecified)  phenotypically active                0
 9  CCC(CC)(NC(=O)C(C)C)C(=O)N[C@@H](CCCNC(=N)N)C(=O)NC1(C(=O)NC(c2ccc(F)cc2)c2ccc(F)cc2)CCCC1  phenotypically active                0
10  Nc1ccc(-c2cccc3c(=O)cc(N4CCOCC4)oc23)cc1  phenotypically active                1
11  Cn1cc(CCn2cnc(-c3cnn(C)c3)c2-c2ccc(C#N)cc2)cn1  phenotypically active                1
12  N#Cc1ccccc1OCC(O)CNCCNC(=O)Nc1ccccc1 (stereo unspecified)  phenotypically active                0
13  CCc1cccc(CC)c1NC(=O)N1Cc2[nH]nc(NC(=O)c3ccc(N4CCN(C)CC4)cc3)c2C1  phenotypically active                1
14  CCCC(=O)Nc1ncnc2c1ncn2[C@@H]1O[C@@H]2COP(=O)(O)O[C@H]2[C@H]1OC(=O)CCC [Dibutyryl-cAMP, sodium salt]  phenotypically active                0
15               O=C(CCCCCCC(=O)Nc1ccccc1)NO  phenotypically active                1
16     O=C(O)CCc1ccccc1 [Hydrocinnamic acid]  phenotypically active                0
17  CC(C)C(=O)SCCCCC[C@H](NC(=O)OC(C)(C)C)C(=O)NC12CC3CC(CC(C3)C1)C2  phenotypically active                0
18  CCCCCCC(=O)OC1CC(C)(C)NC(C)(C)C1 [TMPH hydrochloride]  phenotypically active                0
19  CCOC(=O)c1c(CSc2ccccc2)n(C)c2cc(Br)c(O)c(CN(C)C)c12  phenotypically active                1
20  CC(CN(C)C)CN1c2ccccc2CCc2ccccc21 (stereo unspecified)  phenotypically active                1
